# system name: T1, Human IL-5 amino acid sequence with his tag (rhIL-5-his) (human, UniProt P05113 20-134)
# T1 sequence: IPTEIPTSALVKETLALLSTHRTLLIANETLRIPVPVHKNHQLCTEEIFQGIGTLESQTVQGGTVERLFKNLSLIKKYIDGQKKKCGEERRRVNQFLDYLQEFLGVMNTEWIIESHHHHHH
# assay: cell-based or functional assay
measure: IC50 of inhibition of IL-5-induced proliferation of TF1 cells (pM)

>  <binder>
h1706-003 (antibody, human IgG1, kappa, V domains shown) VH: EVQLVESGGGLVQPGGSLRLSCAASGFTFSHYYMAWVRQAPGKGLEWVSSINYEGNSAYYGDSVKGRFTISRDNSKNTLYLQMNSLRAEDTAVYYCATETLRESLDYWGQGTMVTVSS VL: DIQMTQSPSSVSASVGDRVTITCRASQDIGNYLSWYQQKPGKAPKLLIYSASNLEVGVPSRFSGSGSGTDFTLTISSLQPEDFATYYCLQHKQFPRTFGGGTKVEIKR

>  <result>
310

$$$$
>  <binder>
h1706-007 (antibody, human IgG1, kappa, V domains shown) VH: EVQLVESGGGLVQPGGSLRLSCAASGFTFSHYYMAWVRQAPGKGLEWVTSINYEGNSAYYGDSVKGRFTISRDNSKNTLYLQMNSLRAEDTATYYCATETLRESLDYWGQGTMVTVSS VL: DIQMTQSPSSVSASVGDRVTITCRASQDIGNYLSWYQQKPGKSPKLLIYSASNLEVGVPSRFSGSGSGTDFTLTISSLQPEDFATYYCLQHKQFPRTFGGGTKVEIKR

>  <result>
280

$$$$
>  <binder>
h1780-017 (antibody, human IgG1, kappa, V domains shown) VH: EVQLVQSGAEVKKPGASVKVSCKASGYTFTEYLIHWVRQAPGQGLEWIGYINPYSGGTVYNEKFKSRATLTVDKSISTAYMEFSRLRSDDTAVYYCARDGGYSDPLDYWGQGTMVTVSS VL: DTVLTQSPATLSLSPGERATLSCRASEGLTSYMHWYQQKPGQAPRLLIYKASNLASGVPARFSGSGSGTDFTLTISSLEPEDFATYFCQQNWNDPWTFGGGTKVEIKR

>  <result>
160

$$$$
>  <binder>
h1705-004 (antibody, human IgG1, kappa, V domains shown) VH: EVQLVESGGGLVQPGGSLRLSCAASGFTFSHYYMAWVRQAPGKGLEWVSSISYEGDITYYGDSVKGRFTISRDNSKNTLYLQMNSLRAEDTAVYYCASQTLRESFDYWGQGTLVTVSS VL: DIQMTQSPSSVSASVGDRVTITCRASQDIANYLSWYQQKPGKAPKLLIYGTSNLEVGVPSRFSGSGSGTDFTLTISSLQPEDFATYYCLQDKEFPRTFGGGTKVEIKR

>  <result>
300

$$$$
>  <binder>
h1705-011 (antibody, human IgG1, kappa, V domains shown) VH: EVQLVESGGGLVQPGGSLRLSCAASGFTFSHYYMAWVRQAPGKGLEWVTSISYEGDITYYGDSVKGRFTISRDNSKNTLYLQMNSLRAEDTATYYCASQTLRESFDYWGQGTLVTVSS VL: DIQMTQSPSSVSASVGDRVTITCRASQDIANYLSWYQQKPGKSPKLVIYGTSNLEVGVPSRFSGSRSGSDYTLTISSLQPEDFATYFCLQDKEFPRTFGGGTKVEIKR

>  <result>
280

$$$$
